# credit: patent US6472386B1

# Test system: adhesion of U937 cells to HUVEC stimulated by IL-1β or TNFα
# experimentalProtocol: Inhibitory effect on cell adhesion (U937 cells adhering to stimulated HUVEC)
# Format: cell-based
# assayConditions: Homo sapiens, compound at 1 μM, HUVEC stimulated by TNFα, read-out: Percent inhibition (%) Stimulation by TNFα
Parameter threshold = 50%. Response is Criterion met when inhibition at 1 µM meets or exceeds it, else Criterion not met.

Use these answered entries as a reference point.
COc1cc(C#Cc2nc(CN3CCCN(Cc4csc(C#Cc5cc(OC)c(OC)c(OC)c5)n4)CC3)cs2)cc(OC)c1OC :: Criterion met
COc1cc(C(=O)OCCCN2CCCN(CCCOC(=O)c3cc(OC)c(OC)c(OC)c3)CC2)cc(OC)c1OC [Dilazep, dilazep, reference compound] :: Criterion not met
COc1cc(-c2nc(C)c(CN3CCCN(Cc4sc(-c5cc(OC)c(OC)c(OC)c5)nc4C)CC3)s2)cc(OC)c1OC [Example 11, Dimaleate] :: Criterion met
COc1cc(-c2nc(CCCN3CCCN(CCCc4csc(-c5cc(OC)c(OC)c(OC)c5)n4)CC3)cs2)cc(OC)c1OC :: Criterion not met

**Q:** inhibition at 1 µM >= 50% for COc1cc(C(=O)Nc2nc(CN3CCN(Cc4csc(NC(=O)c5cc(OC)c(OC)c(OC)c5)n4)CC3)cs2)cc(OC)c1OC ?
**A:** Criterion met
